assay: Antiplatelet activity against pig platelet assessed as inhibition of thrombin-induced platelet aggregation by spectrophotometry; format: functional, cell-based; settings: Sus scrofa
pIC50: −log10 of the molar value.
observable: pIC50

>>> endpoint_value("CC1(C)N2Cc3ccccc3C[C@H]2C(=O)N1[C@@H](CCC(=O)O)C(=O)O")
6.09
>>> endpoint_value("CC1(C)N2Cc3ccccc3C[C@H]2C(=O)N1[C@@H](CS)C(=O)O")
6.21
>>> endpoint_value("CC(O)[C@@H](C(=O)O)N1C(=O)[C@@H]2Cc3ccccc3CN2C1(C)C (some centres undefined)")
6.16
>>> endpoint_value("CCC(C)[C@@H](C(=O)O)N1C(=O)[C@@H]2Cc3ccccc3CN2C1(C)C (some centres undefined)")
6.25
>>> endpoint_value("CC1(C)N2Cc3ccccc3C[C@H]2C(=O)N1[C@@H](CCCNC(=N)N)C(=O)O")
6.25
>>> endpoint_value("CC1(C)N2Cc3ccccc3C[C@H]2C(=O)N1[C@@H](CCCCN)C(=O)O")
6.19
>>> endpoint_value("CSCC[C@@H](C(=O)O)N1C(=O)[C@@H]2Cc3ccccc3CN2C1(C)C")
6.07
>>> endpoint_value("C[C@@H](C(=O)O)N1C(=O)[C@@H]2Cc3ccccc3CN2C1(C)C")
6.17
>>> endpoint_value("O=C(O)[C@@H](NC(=O)[C@@H]1Cc2ccccc2CN1)NC1CCC1")
6.73
>>> endpoint_value("O=C(O)[C@@H]1Cc2ccccc2CN1")
6.01
>>> endpoint_value("CC1(C)N2Cc3ccccc3C[C@H]2C(=O)N1[C@@H](CC(N)=O)C(=O)O")
6.04
>>> endpoint_value("CC(C)[C@@H](C(=O)O)N1C(=O)[C@@H]2Cc3ccccc3CN2C1(C)C")
6.21
>>> endpoint_value("CC1(C)N2Cc3ccccc3C[C@H]2C(=O)N1[C@@H](Cc1ccc(O)cc1)C(=O)O")
6.06
>>> endpoint_value("CC(C)C[C@@H](C(=O)O)N1C(=O)[C@@H]2Cc3ccccc3CN2C1(C)C")
6.22
>>> endpoint_value("O=C(O)[C@H](Cc1cc2ccccc2[nH]1)NC(=O)[C@@H]1Cc2ccccc2CN1")
6.63
>>> endpoint_value("CC1(C)N2Cc3ccccc3C[C@H]2C(=O)N1[C@@H](CCC(N)=O)C(=O)O")
6.20
>>> endpoint_value("CC1(C)N2Cc3ccccc3C[C@H]2C(=O)N1[C@@H](CC(=O)O)C(=O)O")
6.03
>>> endpoint_value("CC1(C)N(CC(=O)O)C(=O)[C@@H]2Cc3ccccc3CN21")
6.22
>>> endpoint_value("CC1(C)N2Cc3ccccc3C[C@H]2C(=O)N1[C@@H](Cc1ccccc1)C(=O)O")
6.24

====

test: Antiplatelet activity against pig platelet assessed as inhibition of arachidonic acid-induced platelet aggregation at 10 uM by spectrophotometry; assay type: functional; conditions: Sus scrofa
observable: inhibition at 10 µM (%)

>>> endpoint_value("COC(=O)[C@H](CCCNC(=N)N[N+](=O)[O-])N1C(=O)[C@@H]2Cc3ccccc3CN2C1(C)C")
30.6
>>> endpoint_value("COC(=O)[C@H](Cc1ccccc1)N1C(=O)[C@@H]2Cc3ccccc3CN2C1(C)C")
46.8
>>> endpoint_value("COC(=O)[C@H](CCSC)N1C(=O)[C@@H]2Cc3ccccc3CN2C1(C)C")
30.1
>>> endpoint_value("COC(=O)[C@H](CCCCNC(=O)OCc1ccccc1)N1C(=O)[C@@H]2Cc3ccccc3CN2C1(C)C")
33.7
>>> endpoint_value("COC(=O)CC[C@@H](C(=O)OC)N1C(=O)[C@@H]2Cc3ccccc3CN2C1(C)C")
37.4
>>> endpoint_value("COC(=O)[C@H](CC(N)=O)N1C(=O)[C@@H]2Cc3ccccc3CN2C1(C)C")
30.1
>>> endpoint_value("COC(=O)CN1C(=O)[C@@H]2Cc3ccccc3CN2C1(C)C")
58.9
>>> endpoint_value("COC(=O)C[C@@H](C(=O)OC)N1C(=O)[C@@H]2Cc3ccccc3CN2C1(C)C")
57.7
